Target: T1, human transferrin receptor (recombinant, for surface plasmon resonance) (human, UniProt P02786 89-760)
T1 construct: also called huTfR; human transferrin receptor-biotinylated
T1 sequence (P02786 89-760 limits assumed): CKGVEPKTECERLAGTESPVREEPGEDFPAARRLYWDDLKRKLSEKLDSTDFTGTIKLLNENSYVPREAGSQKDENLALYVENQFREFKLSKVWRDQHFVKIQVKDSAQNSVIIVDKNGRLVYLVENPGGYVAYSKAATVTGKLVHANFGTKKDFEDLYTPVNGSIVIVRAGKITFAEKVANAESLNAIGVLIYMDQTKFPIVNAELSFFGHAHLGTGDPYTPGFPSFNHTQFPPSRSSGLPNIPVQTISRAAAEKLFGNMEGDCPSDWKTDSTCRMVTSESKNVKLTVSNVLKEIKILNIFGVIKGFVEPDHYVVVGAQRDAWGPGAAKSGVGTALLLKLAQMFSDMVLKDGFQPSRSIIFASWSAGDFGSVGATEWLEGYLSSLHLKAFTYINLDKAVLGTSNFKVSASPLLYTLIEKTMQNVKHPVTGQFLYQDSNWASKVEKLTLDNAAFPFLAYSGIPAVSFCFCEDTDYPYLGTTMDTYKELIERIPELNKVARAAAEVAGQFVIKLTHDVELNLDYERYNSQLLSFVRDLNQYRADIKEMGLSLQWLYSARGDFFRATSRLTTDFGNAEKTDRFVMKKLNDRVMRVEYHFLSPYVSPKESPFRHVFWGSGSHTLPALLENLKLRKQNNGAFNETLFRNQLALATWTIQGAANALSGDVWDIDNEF
Assay: SPR 25C
Listing: koff of selected binders
State just the number; it will be interpreted in s⁻¹.

Take a look at these entries with their results.
BINDER | OUTPUT_UNIT | VAL
2/99 VH6/VL10 (antibody, V domains shown) VH: QQLVETGGGLIQPGGSLRLSCAASGFSLSSYAMSWVRQAPGKGLEWIGYIWSGGSTDYADSVKGRFTISRDNSKNTLYLQMNSLRAEDTAVYYCARRYGTSYPDYGDANGFDPWGQGTLVTVSS VL: DIQMTQSPSSLSASVGDRVTITCRASQSISSYLSWYQQKPGKAPKLLIYRASTLASGVPSRFSGSRSGTDFTLTISSLQPEDFATYYCQQSYSSSNVDNTFGGGTKVEIK | s⁻¹ | 0.00455
2/99 VH12/VL3 (antibody, V domains shown) VH: QVQLQESGPGLVKPSETLSLTCTVSGFSLSSYAMSWIRQPPGKGLEWIGYIWSGGSTDYNPSLKSRVTISVDTSKNQFSLKLSSVTAADTAVYYCARRYGTSYPDYGDANGFDPWGQGTLVTVSS VL: AYQMTQSPSSLSASVGDRVTITCRASQSISSYLNWYQQKPGKAPKLLIYRASTLASGVPSRFSGSGSGTDFTLTISSLQPEDFATYYCQQSYSSSNVDNTFGGGTKVEIK | s⁻¹ | 0.00586

Which value of koff has been reported for 2/99 VH9/VL5 (antibody, V domains shown) VH: QQLLESGGGLVQPGGSLRLSCAASGFTFSSYAMSWVRQAPGKGLEWVGYIWSGGSTDYADSVKGRFTISRDNSKNTLYLQMNSLRAEDTAVYYCAKRYGTSYPDYGDANGFDPWGQGTLVTVSS VL: DIQMTQSPSSLSASVGDRVTITCRASQSISSYLSWYQQKPGKAPKLLIYRASTLASGVPSRFSGSGSGTDFTLTISSLQPEDFATYYCQQSYSSSNVDNTFGGGTKVEIK in the records?
0.0035
